Tested on: BPNV
Assay: CPE reduction assay in DPHt cells
Assay type: cell-based, Ball python nidovirus
Conditions: Ball python nidovirus, average ± SD, read-out: EC50 (50% effective concentration, CPE reduction assay)
property.name: EC50 (µg/mL)
Give the quantity in µg/mL, number only.

The reported EC50 value, BPNV, for `NC(=O)c1ncn([C@@H]2O[C@H](CO)[C@@H](O)[C@H]2O)n1` reads 0.9

Note: attention shifts to another entry.
The reported EC50 value, BPNV, for `CCOC(=O)c1ccc(OCCC2CCN(c3ccc(C)nn3)CC2)cc1` reads 2.6

---

Tested on: Diamond python heart cells (DPHt)
Experiment: Cytotoxicity in uninfected wells of the CPE assay
Format: cell-based, Diamond python (Morelia spilota spilota)
Conditions: Diamond python (Morelia spilota spilota)
property.name: CC50 (50% cytotoxic concentration)

Short answer for CCOC(=O)c1ccc(OCCC2CCN(c3ccc(C)nn3)CC2)cc1 [Pirodavir, pirodavir] : CC50 (50% cytotoxic concentration) was >10 µg/mL
